We begin with a simple list: items and their reported inhibition of growth at 150 g/ha.
- Tested on: Setaria faberi
- Experiment summary: Herbicidal activity against Setaria faberi (Giant Foxtail) assessed as growth inhibition at 150 g/ha postemergence treatment measured after 15 days by Greenhouse test
- Type: functional
- Assay conditions: post-emergence, 360 h, read-out: GI

molecule=CCOC(=O)C(C)(C)Sc1nc2cc(N3C(=O)C4=C(CCCC4)C3=O)c(Cl)cc2s1 result="< 50%"
molecule=CCOC(=O)CCSc1nc2cc(N3C(=O)C4=C(CCCC4)C3=O)c(F)cc2s1 result="< 50%"
molecule=CCCOC(=O)CSc1nc2cc(N3C(=O)c4ccccc4C3=O)c(F)cc2s1 result=50%
molecule=COC(=O)Sc1nc2cc(N3C(=O)C4=C(CCCC4)C3=O)c(Cl)cc2s1 result="< 50%"
molecule=CC(C)OC(=O)CSc1nc2cc(N3C(=O)c4ccccc4C3=O)c(F)cc2s1 result="< 50%"

Would you mind telling me what inhibition of growth at 150 g/ha value was observed for CCCOC(=O)CSc1nc2cc(N3C(=O)C4=C(CCCC4)C3=O)c(F)cc2s1 ? < 50%

# get_value(readout='inhibition of growth at 150 g/ha', item= CC(C)OC(=O)CSc1nc2cc(N3C(=O)C4=C(CCCC4)C3=O)c(F)cc2s1 ) 50%

Item CCOC(=O)Sc1nc2cc(N3C(=O)C4=C(CCCC4)C3=O)c(Cl)cc2s1 has what recorded inhibition of growth at 150 g/ha? < 50%

# inhibition of growth at 150 g/ha lookup, item COC(=O)CSc1nc2cc(N3C(=O)C4=C(CCCC4)C3=O)c(Cl)cc2s1 < 50%

Item CCOC(=O)C(C)Sc1nc2cc(N3C(=O)C4=C(CCCC4)C3=O)c(F)cc2s1 (stereo not given) has what recorded inhibition of growth at 150 g/ha? 60%

###

- Target desc: Protoporphyrinogen oxidase (Homo sapiens) (UniProt P50336)
- Sequence (P50336 whole entry): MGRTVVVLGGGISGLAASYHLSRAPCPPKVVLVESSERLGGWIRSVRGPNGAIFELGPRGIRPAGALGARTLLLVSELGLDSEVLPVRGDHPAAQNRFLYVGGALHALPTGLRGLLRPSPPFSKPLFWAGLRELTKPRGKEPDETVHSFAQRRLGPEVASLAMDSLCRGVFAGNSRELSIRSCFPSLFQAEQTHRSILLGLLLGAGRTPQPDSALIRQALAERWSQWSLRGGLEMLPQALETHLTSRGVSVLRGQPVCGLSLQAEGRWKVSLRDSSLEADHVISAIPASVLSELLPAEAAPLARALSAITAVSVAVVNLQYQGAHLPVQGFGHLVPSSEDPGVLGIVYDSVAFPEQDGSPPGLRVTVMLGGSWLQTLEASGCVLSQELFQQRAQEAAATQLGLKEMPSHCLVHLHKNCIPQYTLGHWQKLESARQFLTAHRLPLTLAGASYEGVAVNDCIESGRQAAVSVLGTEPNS
- Experiment summary: Inhibition of Homo sapiens (human) recombinant protoporphyrinogen oxidase by fluorescence detection
# Ki values compiled below
Express your answer in nM, writing the number without its unit.

What value of Ki has been recorded for this entry: CCOC(=O)CCSc1nc2cc(N3C(=O)C4=C(CCCC4)C3=O)c(Cl)cc2s1 320

Give the measured Ki of Cc1nn(-c2cc(NS(C)(=O)=O)c(Cl)cc2Cl)c(=O)n1C(F)F . 720

Dear colleague, I am looking for the recorded Ki of the following molecule: CCOC(=O)C(C)Sc1nc2cc(N3C(=O)c4ccccc4C3=O)c(F)cc2s1 (stereo not given) 132000

Given CCOC(=O)C(C)Sc1nc2cc(N3C(=O)C4=C(CCCC4)C3=O)c(Cl)cc2s1 (stereo not given) , state its recorded Ki. 800

State the recorded Ki for this entry: CCOC(=O)C(C)Sc1nc2cc(N3C(=O)C4=C(CCCC4)C3=O)c(F)cc2s1 (stereo not given) 290

###

- Target desc: Protoporphyrinogen oxidase (Homo sapiens) (UniProt P50336)
- Experiment summary: Inhibition of Homo sapiens (human) recombinant protoporphyrinogen oxidase by fluorescence detection
Listing: Ki of selected compounds
Give the number; nM is assumed, so skip it.

structure_as_smiles=CCOC(=O)Sc1nc2cc(N3C(=O)c4ccccc4C3=O)c(F)cc2s1 readout_label=Ki recorded_number=510

Could you tell me which Ki is on file for CCCOC(=O)CSc1nc2cc(N3C(=O)C4=C(CCCC4)C3=O)c(F)cc2s1 ? 280

Request the reported Ki associated with CCOC(=O)Sc1nc2cc(N3C(=O)C4=C(CCCC4)C3=O)c(Cl)cc2s1 470

For the compound shown here, COC(=O)CSc1nc2cc(N3C(=O)C4=C(CCCC4)C3=O)c(Cl)cc2s1 , give the reported Ki. 3920

Give the measured Ki of CCOC(=O)CCSc1nc2cc(N3C(=O)c4ccccc4C3=O)c(F)cc2s1 . 5520
